Assay Info: pH of the tested solution
Type: physicochemical
Test Parameters: test solution 0.1M (extracts: 0.1M total components)
Listed below: pH values for each entry.
Answer with a number only.

CCCCCCCCCC(O)CC(=O)O (centres unmarked) [3-hydroxydodecanoic acid]	6
CCCCCC(O)CC(=O)O (centres unmarked) [3-hydroxoctanoic acid]	6
CCCCCc1cc(O)cc(O)c1	6.5
CCCCCCc1ccc(O)cc1O	6.5
CCCc1cccc(O)c1	6.5
CCCCCc1cccc(O)c1	6.5
CCCCCCCC(O)CC(=O)O (centres unmarked) [3-hydroxydecanoic acid]	6

Next item in the queue.
Would you kindly share the measured pH for CCCc1cc(O)cc(O)c1 ?
6.5
